- Measured Target: HMG CoA reductase (Homo sapiens, UniProt P04035)
- Sequence (P04035 whole entry, species assumed): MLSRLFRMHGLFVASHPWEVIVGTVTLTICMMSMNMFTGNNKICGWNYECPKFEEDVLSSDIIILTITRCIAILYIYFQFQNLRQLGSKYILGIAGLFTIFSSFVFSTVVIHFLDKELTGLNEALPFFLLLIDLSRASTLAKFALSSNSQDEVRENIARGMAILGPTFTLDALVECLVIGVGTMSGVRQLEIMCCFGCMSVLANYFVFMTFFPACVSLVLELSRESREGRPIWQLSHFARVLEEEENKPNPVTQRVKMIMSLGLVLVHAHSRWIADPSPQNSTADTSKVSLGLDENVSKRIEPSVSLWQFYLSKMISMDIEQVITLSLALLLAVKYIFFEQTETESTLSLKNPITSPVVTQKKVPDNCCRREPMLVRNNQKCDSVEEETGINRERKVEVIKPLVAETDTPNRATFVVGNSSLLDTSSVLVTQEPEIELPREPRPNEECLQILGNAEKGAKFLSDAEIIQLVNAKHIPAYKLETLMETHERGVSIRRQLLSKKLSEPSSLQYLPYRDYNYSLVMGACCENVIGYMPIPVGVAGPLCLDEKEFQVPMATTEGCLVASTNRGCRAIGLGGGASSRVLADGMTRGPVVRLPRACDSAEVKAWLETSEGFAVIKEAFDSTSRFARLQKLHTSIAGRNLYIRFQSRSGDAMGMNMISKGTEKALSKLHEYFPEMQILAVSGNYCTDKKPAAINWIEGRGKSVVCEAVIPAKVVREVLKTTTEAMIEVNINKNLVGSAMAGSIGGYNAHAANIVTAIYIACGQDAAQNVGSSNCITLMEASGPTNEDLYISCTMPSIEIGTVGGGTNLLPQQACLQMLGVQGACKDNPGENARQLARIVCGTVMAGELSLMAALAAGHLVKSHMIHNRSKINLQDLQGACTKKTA
- Method Summary: Ubiquitination of reductase in a permeabilized cell system
- Assay type: cell-based
- Condition Parameters: permeabilized cells; data not shown
Measured Property: Stimulation of ubiquitination of reductase

compound="CC(C)CCC[C@@H](C)[C@H]1CC[C@H]2[C@@H]3CC=C4C[C@@H](O)CC[C@]4(C)[C@H]3CC[C@]12C [Cholesterol]" result=not

====

- Measured Target: Recombinant human P450 27A1 (Homo sapiens, UniProt Q02318)
- Construct: made in house; host or cells: E. coli
- Sequence (Q02318 34-531): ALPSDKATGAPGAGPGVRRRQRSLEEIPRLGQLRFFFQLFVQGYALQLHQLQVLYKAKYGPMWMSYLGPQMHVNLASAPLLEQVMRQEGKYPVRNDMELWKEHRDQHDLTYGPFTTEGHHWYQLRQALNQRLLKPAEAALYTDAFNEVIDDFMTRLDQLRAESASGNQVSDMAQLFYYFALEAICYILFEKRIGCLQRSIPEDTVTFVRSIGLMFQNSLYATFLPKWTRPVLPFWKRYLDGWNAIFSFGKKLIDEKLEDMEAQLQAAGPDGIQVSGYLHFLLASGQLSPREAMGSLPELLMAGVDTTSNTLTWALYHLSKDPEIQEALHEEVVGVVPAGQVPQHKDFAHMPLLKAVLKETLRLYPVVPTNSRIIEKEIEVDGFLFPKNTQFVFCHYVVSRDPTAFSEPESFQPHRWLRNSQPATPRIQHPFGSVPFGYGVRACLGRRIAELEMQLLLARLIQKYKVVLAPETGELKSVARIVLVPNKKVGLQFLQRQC
- Method Summary: P450 27A1 enzyme incubation: rate of 27-diol formation (GLC-MS)
- Type: biochemical
- Condition Parameters: total over 10 min
Measured Property: Total 27-diol metabolite (ng/10 min)

compound=CC(C)=CCC[C@@H](C)[C@H]1CC[C@H]2C3=C(CC[C@]12C)[C@@]1(C)CC[C@H](O)C[C@@H]1CC3 measured_property="Total 27-diol metabolite" measured_number=97
compound=CC(C)CCC[C@@H](C)[C@H]1CC[C@H]2[C@@H]3CC=C4C[C@@H](O)CC[C@]4(C)[C@H]3CC[C@]12C measured_property="Total 27-diol metabolite" measured_number=534
compound=CC(C)=CCC[C@@H](C)[C@H]1CC[C@H]2[C@@H]3CC=C4C[C@@H](O)CC[C@]4(C)[C@H]3CC[C@]12C measured_property="Total 27-diol metabolite" measured_number=85
compound="CC(C)CCC[C@@H](C)[C@H]1CC[C@H]2C3=CC=C4C[C@@H](O)CC[C@]4(C)[C@H]3CC[C@]12C [7-Dehydrocholesterol]" measured_property="Total 27-diol metabolite" measured_number=107
